Source: the supplement of paper PMC10065799

Each record here notes measured phosphorylation enrichment.
molecular target: MERTK (UniProt Q12866); assay: phosphorylation enrichment, bacterial display (enrichment ratio); higher = better substrate or ligand; peptides without Tyr show the background;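 note: 11-residue human phosphosite peptides and single-mutation variants displayed on the E. coli surface, counted by deep sequencing, each peptide's frequency after selection divided by its frequency in the unselected input library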;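 note: frequency after pTyr selection over input frequency; kinase dosed for 20-30% of maximal phosphorylation in three min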
Sequence (Q12866 whole entry, looked up): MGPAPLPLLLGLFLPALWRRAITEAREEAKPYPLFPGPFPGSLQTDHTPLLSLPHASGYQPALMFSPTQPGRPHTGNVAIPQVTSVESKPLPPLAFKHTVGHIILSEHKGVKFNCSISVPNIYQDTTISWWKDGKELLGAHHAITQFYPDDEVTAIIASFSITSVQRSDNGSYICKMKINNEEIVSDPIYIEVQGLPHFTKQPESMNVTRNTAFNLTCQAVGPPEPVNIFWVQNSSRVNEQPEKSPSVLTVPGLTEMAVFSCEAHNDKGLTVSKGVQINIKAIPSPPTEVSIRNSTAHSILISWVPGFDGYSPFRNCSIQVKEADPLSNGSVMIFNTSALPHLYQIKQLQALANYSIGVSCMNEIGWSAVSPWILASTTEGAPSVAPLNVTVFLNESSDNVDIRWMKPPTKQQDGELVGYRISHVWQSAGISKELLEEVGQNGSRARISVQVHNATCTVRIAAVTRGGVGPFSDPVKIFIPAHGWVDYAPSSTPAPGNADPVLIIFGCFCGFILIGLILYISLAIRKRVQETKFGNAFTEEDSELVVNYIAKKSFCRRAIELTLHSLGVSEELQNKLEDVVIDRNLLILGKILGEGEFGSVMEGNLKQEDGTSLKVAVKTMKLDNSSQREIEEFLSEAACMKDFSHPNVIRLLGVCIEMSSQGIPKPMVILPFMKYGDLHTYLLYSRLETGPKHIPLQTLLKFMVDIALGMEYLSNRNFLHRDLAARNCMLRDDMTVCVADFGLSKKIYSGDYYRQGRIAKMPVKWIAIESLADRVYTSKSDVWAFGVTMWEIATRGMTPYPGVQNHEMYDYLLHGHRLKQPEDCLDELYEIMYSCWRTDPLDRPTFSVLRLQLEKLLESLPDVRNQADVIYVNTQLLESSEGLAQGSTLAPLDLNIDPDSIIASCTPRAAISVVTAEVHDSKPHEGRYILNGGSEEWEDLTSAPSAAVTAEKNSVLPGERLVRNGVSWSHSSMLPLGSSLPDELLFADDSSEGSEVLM
Simply state the number, no unit and no words.

Input sequence: EATKGYLDDPT [G6PD_Y322]
Measured attribute: phosphorylation enrichment
Reading: 0.455

Input sequence: GVLKEYGVKVL [CPS1_Y529]
Measured attribute: phosphorylation enrichment
Reading: 0.488

Input sequence: PVADRYDQSFE [MAPK14_Y323_P322R]
Measured attribute: phosphorylation enrichment
Reading: 0.448

Input sequence: NKKFHYRELPV [ERN2_Y860_H858Y_YF]
Measured attribute: phosphorylation enrichment
Reading: 0.306

Input sequence: CENNRYGMGAS [PDHA1_Y227_T231A]
Measured attribute: phosphorylation enrichment
Reading: 0.324

Input sequence: GDSVQYNRTTD [MLPH_Y454_P451S]
Measured attribute: phosphorylation enrichment
Reading: 0.419

Input sequence: RKMSSYAFFVQ [HMGB1_Y16_G11R]
Measured attribute: phosphorylation enrichment
Reading: 1.19

Input sequence: TEQDPYNNIDR [MMUT_Y364_V368D]
Measured attribute: phosphorylation enrichment
Reading: 0.475

[ask] Request - read-out phosphorylation enrichment | tested on MERTK (UniProt Q12866) | sequence ILGRFYETGSI [PAX2_Y73_YF]
[reply] 0.428

[ask] Please give the result for AKLKDYYIFNK [CCDC42_Y149] too.
[reply] 0.704

[ask] Cool, now QGGRCYMMIVD [GAA_Y438_R437C]
[reply] 0.928

[ask] Next: TRSYKYLLLSM [NF1_Y491]
[reply] 0.485

[ask] Now try FQCKHYACIRQ [TIMP3_Y182_S179C_YF] .
[reply] 0.414

[ask] And for YKGKNYKPLDL [RPL35_Y78_K77N] ?
[reply] 0.333

[ask] Please do the same for LRLSSYSTTIR [CYP7B1_Y365] as well.
[reply] 0.686

[ask] Next: KKARAYGPGIE [FLNA_Y287]
[reply] 0.399

[ask] Input WRPFGYPHRRR [BCS1L_Y181_R183H]
[reply] 0.505

[ask] Next sequence up: FLTQHHDAKPQ [ANG_Y38_Y38H]
[reply] 0.44

[ask] Next sequence up: HLEKKYVHRDS [CSF1R_Y708_R710H]
[reply] 0.438

[ask] Continue with NDENIYKGLPD [VAV3_Y141_D139N]
[reply] 0.542

[ask] Repeat with ACCLLYHGDVV [TUBA4A_Y319_R320H]
[reply] 0.739

[ask] Now try RAHARYCADAR [ACOT4_Y52] .
[reply] 0.444

[ask] Please do the same for KRIETYFSKNY [PLP1_Y50_L46R] as well.
[reply] 0.392

[ask] Next sequence up: DIPIRYSITGV [CDH4_Y205]
[reply] 0.405

[ask] Input MKDLTYASLCF [ALOX5_Y446]
[reply] 3.15

[ask] How about MHLRQYKLLGG [GNAS_Y391_E392K] ?
[reply] 0.412

[ask] Same lookup for HQNGMYRLHQD [SGSH_Y89_G90R] , please.
[reply] 0.414

[ask] Same question for GEIQEYGAPSD [ABCC1_Y1508] please.
[reply] 0.476
